TGI: recorded values
test system: TK-10 renal; test: NCI tumour cell line growth inhibition, 48 h

Known results for compounds:
- COMPOUND: "Cc1nc2c(O)cc3c4c(n(Cc5ccccc5)c3c2nc1C)C(=O)CCC4"
  ASSAY_SYSTEM: "TK-10 renal"
  OBSERVABLE: "TGI"
  REPORTED_VALUE: "> 100 µM"
- COMPOUND: "COc1ccc(C(=O)CC(=O)C(=O)Nc2ccc(C)c(C)c2)cc1"
  ASSAY_SYSTEM: "TK-10 renal"
  OBSERVABLE: "TGI"
  REPORTED_VALUE: "> 100 µM"

Prompt line: Find the measured TGI of CCOC(=O)C(=O)Nc1c(CC)cccc1C(C)CC (stereo not drawn) and report it.
Response line: > 100 µM

###

test system: CCRF-CEM leukemia; experiment: NCI tumour cell line growth inhibition, 48 h
OBSERVABLE: TGI (µM)
Please respond with the number in µM and leave the unit unwritten.

Previously resolved entries follow.
- COMPOUND: "O=C1CC[C@H](c2ccc(O)c3c2C(=O)[C@@H]2O[C@@H]2C3=O)c2cccc(O)c21"
  UNITS_TEXT: "µM"
  TGI: 5.76
- COMPOUND: "COc1ccc(-c2nc(N3CCOCC3)c3sc(CN(C)c4ncc(C(=O)NO)cn4)cc3n2)cn1"
  UNITS_TEXT: "µM"
  TGI: 1.53

Could you now consider this next compound?
Prompt line: Answer with reported TGI of "COc1ccccc1/C=C/c1c(N)ncnc1Nc1cccc(Cl)c1"
Response line: 1.12

###

# maps each entry to its TGI
tested on: 786-0 renal; experiment: NCI tumour cell line growth inhibition, 48 h
Report the value in µM with no unit label.

Known TGI results, listed for orientation:
- COMPOUND: "O=C(Nc1ccc(OCc2nnc(-c3ccccc3)o2)c(F)c1)Nc1ccc(Cl)c(C(F)(F)F)c1"
  TGI (µM): 4.21
- COMPOUND: "N=c1n(Cc2ccccc2)c(N)cc(=O)n1Cc1ccccc1"
  TGI (µM): 9.76
- COMPOUND: "CCOC(=O)NC(=O)c1cn(CCCOC(=O)NCCCCCCNC(=O)OCCCn2cc(C(=O)NC(=O)OCC)c(=O)[nH]c2=O)c(=O)[nH]c1=O"
  TGI (µM): 49.9
- COMPOUND: "O=C1c2cc([N+](=O)[O-])cc3cc([N+](=O)[O-])cc(c23)C(=O)N1CCCNCCNCCCN1C(=O)c2cc([N+](=O)[O-])cc3cc([N+](=O)[O-])cc(c23)C1=O"
  TGI (µM): 3.35
- COMPOUND: "O=C(Cc1ccccc1)NC(c1ccc(Cl)cc1)c1c(O)ccc2ccccc12 (configuration not stated)"
  TGI (µM): 9.76

Prompt line: Determine from records and report TGI for "O=C(O)c1c[nH]c2c(OCc3ccccc3)c3ccccc3c(O)c2c1=O"
Response line: 43.9

Prompt line: Dear colleague, please send me the reported TGI for "Cc1c(C(=O)/C=C/c2c(Cl)cccc2Cl)c(=O)n(-c2ccccc2)n1C" when you can.
Response line: 38.6

Prompt line: Identify measured TGI corresponding to "O=C(CN1C(=O)S/C(=C\C(Cl)=C\c2ccccc2)C1=O)NCCc1ccc(O)cc1"
Response line: 3.54

Prompt line: Answer with the recorded TGI of CCN(CC)CCCC(Cc1ccccc1)Nc1c2ccc(Cl)cc2nc2ccc(OC)cc12 (configuration not stated) only.
Response line: 3.34

Prompt line: Input "Clc1ccc(C2=NN[C@H](c3cn(-c4ccccc4)nc3-c3ccccc3)C2)cc1" , output reported TGI.
Response line: 18.6

Prompt line: Using known records, supply TGI for "C[C@]12CC[C@H]3[C@@H](CCC4=CC(=O)CC[C@@]43C)[C@@H]1CC[C@@H]2C(=O)Nc1ccc([N+](=O)[O-])c(C(F)(F)F)c1"
Response line: 31.2

###

tested on: NCI-H23 lung; assay: NCI tumour cell line growth inhibition, 48 h
OBSERVABLE: TGI

# example entries with known answers
- MOLECULE: "OCCCc1cc(O)c2c(c1)C(CO)C(c1ccc(O)c(O)c1)O2 (centres undefined)"
  REPORTED_VALUE: "> 100 µM"
- MOLECULE: "COC1OC(COS(=O)(=O)c2ccc(C)cc2)C(O)C(OS(=O)(=O)c2ccc(C)cc2)C1OS(=O)(=O)c1ccc(C)cc1 (centres undefined)"
  REPORTED_VALUE: "> 100 µM"
- MOLECULE: "CN(C)C(=S)N/N=C(\\C(=N/NC(=S)N(C)C)c1ccccn1)c1ccccn1"
  REPORTED_VALUE: "> 53.2 µM"

Prompt line: Item OCC1OC2OC3C(CO)OC(OC4C(CO)OC(OC5C(CO)OC(OC6C(CO)OC(OC7C(CO)OC(OC1C(O)C2O)C(O)C7O)C(O)C6O)C(O)C5O)C(O)C4O)C(O)C3O (centres undefined) (tested in a mixture with another compound) : provide TGI
Response line: > 100 µM

###

tested on: NCI-H23 lung; experiment: NCI tumour cell line growth inhibition, 48 h
Listed below: TGI values for each entry.

- COMPOUND: "O=C(CN1C(=O)S/C(=C\\C(Cl)=C\\c2ccccc2)C1=O)NCCc1ccc(O)cc1"
  TGI: "6.15 µM"
- COMPOUND: "COC(=O)C1=C(CS(=O)c2ccc([N+](=O)[O-])cc2[N+](=O)[O-])ON(C)C1c1ccccc1 (centres undefined)"
  TGI: "> 100 µM"
- COMPOUND: "COC(=O)/C(=N\\NC(=S)NN)C(C(=O)OC)C(=O)C(=O)Nc1cccc(C(F)(F)F)c1 (centres undefined)"
  TGI: "> 100 µM"
- COMPOUND: "C/C(=C\\CCc1ccsc1)CC/C=C(\\C)CCCN1CCC(CO)CC1"
  TGI: "12.9 µM"
- COMPOUND: "COc1ccc2c(c1)CCN1CCCc3ccc(OC)cc3C21 (centres undefined)"
  TGI: "> 100 µM"

Prompt line: Output reported TGI of the compound COc1cc([C@@H]2c3cc4c(cc3[C@@H](OC3OC5COC(C)OC5C(OC(=O)CN5CCN(C)CC5)C3OC(=O)CN3CCN(C)CC3)C3COC(=O)[C@@H]32)OCO4)cc(OC)c1OC(=O)CN1CCN(C)CC1 (some centres undefined) on NCI-H23 lung.
Response line: > 100 µM

Prompt line: # return TGI for "COC(=O)c1cnn2c1ccc1ccccc12" , test system: NCI-H23 lung
Response line: > 100 µM

Prompt line: Under NCI-H23 lung, report TGI for "Brc1ccccc1C=NC12CC3CC(CC(C3)C1)C2"
Response line: > 100 µM

Prompt line: Fill in: TGI on NCI-H23 lung, entry "CCOC(=O)c1c(Cl)c2c(n1Cc1cccc(OC)c1)-c1oncc1CC2"
Response line: 60.6 µM

Prompt line: Report TGI on NCI-H23 lung for this entry: "CS(=O)(=O)c1ccc(Oc2cc(F)cc(C#N)c2)c2c1[C@H](O)C(F)(F)C2"
Response line: > 100 µM

Prompt line: State the measured TGI (NCI-H23 lung) of "CC(=O)O[C@H]1CC[C@@]2(C)C(=C[C@H](c3ccc(O)cc3)[C@H]3[C@@H]4CC[C@H](OC(C)=O)[C@@]4(C)CC[C@@H]32)C1"
Response line: 53.7 µM

Prompt line: Provide TGI, system NCI-H23 lung, entry "COC(=O)CCc1ccc2c(c1)CC1(Cc3ccccc3C1)C2"
Response line: > 100 µM

Prompt line: State TGI (NCI-H23 lung) of "Clc1ccc(C2=NN[C@H](c3cn(-c4ccccc4)nc3-c3ccccc3)C2)cc1" .
Response line: 23.4 µM

Prompt line: // fetch TGI for "NC(=O)CCC(CCC(N)=O)(CCC(N)=O)[N+](=O)[O-]" ; system: NCI-H23 lung
Response line: > 100 µM

Prompt line: Provide TGI, tested on NCI-H23 lung, for "CS/C(=N\S(=O)(=O)c1cc(C)c(Cl)cc1Cl)NNc1cnc2ccccc2n1" .
Response line: > 100 µM

Prompt line: Under NCI-H23 lung, report TGI for Cc1ccc2c(c1)C(C1Cc3cccc(C)c3C1=O)OC2=O (centres undefined)
Response line: > 100 µM

Prompt line: Retrieve TGI on NCI-H23 lung; query "CCOC(=O)N1CCN(c2nc(C)n(-c3ccccc3)c(=S)c2C#N)CC1"
Response line: > 100 µM

Prompt line: Report its TGI with NCI-H23 lung as the test system: "O=[N+]([O-])c1cc(-c2nnc(C34CC5CC(CC(C5)C3)C4)o2)cc([N+](=O)[O-])c1"
Response line: > 100 µM

Prompt line: Quote NCI-H23 lung TGI for entry "O=C(O)CP(=O)(O)O" .
Response line: > 100 µM

Prompt line: Given COC(=O)c1cc(C)ccc1C1CN=NC12Cc1cccc(C)c1C2=O (centres undefined) , report its TGI on NCI-H23 lung.
Response line: > 100 µM

Prompt line: Please tell me the measured TGI for "O=c1c2cc(-c3ccccc3)cnc2sn1-c1ccc(Oc2ccccc2)cc1" ; system: NCI-H23 lung.
Response line: > 100 µM

Prompt line: Provide measured TGI on NCI-H23 lung for C[C@@H](CO)C1=CC(C#C[Si](C)(C)C)N(C(=O)Oc2ccccc2)c2ccccc21 (some centres undefined) please.
Response line: 23.1 µM

Prompt line: Please respond with reported TGI (system NCI-H23 lung) for "Cc1cc(O)c(C=NC(=S)c2ccccc2)c(=O)o1" .
Response line: > 100 µM

Prompt line: State TGI on NCI-H23 lung. Entry: "COc1ccc2oc(=O)c(-c3nc4ccccc4o3)cc2c1"
Response line: > 100 µM

Prompt line: Report the value of TGI obtained on NCI-H23 lung for CSc1nc(C)c(Br)c(=O)n1C1OC(COC(C)=O)C(OC(C)=O)C(OC(C)=O)C1OC(C)=O (centres undefined) .
Response line: > 100 µM

Prompt line: Please look at COC(=O)C(Cc1ccccc1)NC(=O)Cn1ccnc1[N+](=O)[O-] (centres undefined) and tell me its recorded TGI on NCI-H23 lung.
Response line: > 100 µM

Prompt line: Provide NCI-H23 lung TGI reading for Nc1cccc2c1C1=NNC(=O)CC1C2 (centres undefined) .
Response line: > 20.3 µM

Prompt line: # return TGI of "Cc1coc2c1C(=O)C(=O)c1c-2ccc2c1CCCC2(C)C" (system: NCI-H23 lung)
Response line: 2.8 µM
